Assay: Cytotoxic Profiling in NIH 3T3 Cell Line of Diverse Libraries Using Quantitative High-Throughput Screening; note: nearly all actives have a fitted effect of over 55% in size
Settings: NIH 3T3 viability, CellTiter-Glo ATP luminescence, 48-72 h; series mostly up to 96.7 µM
Among all 94,000 compounds or so, about 4,000 (4.3%) were called active. Roughly 29% stayed inconclusive and do not appear here. Only a selection was taken, and actives are over-represented in it overall.
Endpoint name: outcome

Look over these answered cases.
Cc1ccc([C@@H]2CN(C(=O)c3ccco3)[C@@H]3C4CCN(CC4)[C@@H]32)cc1; inactive
CN(C)C(=O)[C@H]1CN2CCC1C[C@@H]2Cn1cc(-c2ccc(-c3ccccc3)cc2)nn1 (stereo partly specified); inactive
Cc1ccc([C@@H]2CN(Cc3ncc[nH]3)[C@@H]3C4CCN(CC4)[C@@H]32)cc1; inactive
O=C1NC2(Cc3ccccc31)CN(CC1CC1)C2; inactive
O=C1NC2(Cc3ccccc31)CN(Cc1ccncc1)C2; inactive

// below: outcome requested for another compound
Tell me the measured outcome of O=S1(=O)NCC2(CCN(Cc3ccc(Cl)s3)C2)Oc2ncccc21 (stereo unspecified) , please.
inactive

// provenance: PubChem BioAssay AID1345082
